Molecular target: Adenosine receptor A1 (Homo sapiens) (UniProt P30542)
Test: Displacement of [3H]R-PIA from human adenosine A1 receptor in CHO membrane at 10 uM
Assay type: cell membranes
Label scheme for Activity: lower than 20% is Criterion not met, 20% and above is Criterion met.

Clc1ccc(Nc2nc3ccccc3c3[nH]c(C4CCCC4)nc23)cc1 ... Criterion met

In: Check the entry c1ccc2c3nc(C4CCCC4)nc-3c(Nc3ccc4cc[nH]c4c3)[nH]c2c1 : does Activity equal or exceed 20%?
Out: Criterion met

In: Check the entry Clc1ccc(Nc2[nH]c3ccccc3c3nc(-c4ccco4)nc2-3)cc1Cl : does Activity equal or exceed 20%?
Out: Criterion not met

In: Check the entry Clc1ccc(Nc2nc3ccccc3c3[nH]c(C4CCCCCC4)nc23)cc1Cl : does Activity equal or exceed 20%?
Out: Criterion not met

In: Check the entry CCCCCc1nc2c(Nc3ccc(Cl)c(Cl)c3)[nH]c3ccccc3c-2n1 : does Activity equal or exceed 20%?
Out: Criterion met

In: Check the entry COc1ccc(CNc2[nH]c3ccccc3c3nc(C4CCCC4)nc2-3)cc1 : does Activity equal or exceed 20%?
Out: Criterion met

In: Check the entry c1ccc2c3nc(C4CCCC4)nc-3c(Nc3ccc4c[nH]nc4c3)[nH]c2c1 : does Activity equal or exceed 20%?
Out: Criterion met

In: Check the entry Clc1ccc(Nc2nc3ccccc3c3[nH]c(C4CCCC4)nc23)cc1Cl : does Activity equal or exceed 20%?
Out: Criterion not met

In: Check the entry Clc1ccc(Nc2nc3ccccc3c3nc(C4CCCCC4)[nH]c23)cc1Cl : does Activity equal or exceed 20%?
Out: Criterion not met

###

Target: Adenosine receptor A1 (Homo sapiens)
Sequence (P30542 whole entry): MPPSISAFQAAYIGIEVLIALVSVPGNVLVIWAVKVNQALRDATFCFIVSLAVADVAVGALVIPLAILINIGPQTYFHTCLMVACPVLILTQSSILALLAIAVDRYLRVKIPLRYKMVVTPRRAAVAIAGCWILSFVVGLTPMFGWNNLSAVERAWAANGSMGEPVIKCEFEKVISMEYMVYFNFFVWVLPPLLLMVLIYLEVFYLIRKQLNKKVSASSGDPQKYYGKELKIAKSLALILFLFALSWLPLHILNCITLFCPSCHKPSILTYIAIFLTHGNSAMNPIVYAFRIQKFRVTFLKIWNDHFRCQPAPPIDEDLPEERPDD
pKi: −log10 of the molar value.
property_label: pKi

The reported value for Clc1ccc(Nc2nc3ccccc3c3[nH]c(C4CCCC4)nc23)cc1Cl in terms of pKi is < 5.00

###

Molecular target: Adenosine receptor A2a (Homo sapiens)
Sequence (P29274 whole entry): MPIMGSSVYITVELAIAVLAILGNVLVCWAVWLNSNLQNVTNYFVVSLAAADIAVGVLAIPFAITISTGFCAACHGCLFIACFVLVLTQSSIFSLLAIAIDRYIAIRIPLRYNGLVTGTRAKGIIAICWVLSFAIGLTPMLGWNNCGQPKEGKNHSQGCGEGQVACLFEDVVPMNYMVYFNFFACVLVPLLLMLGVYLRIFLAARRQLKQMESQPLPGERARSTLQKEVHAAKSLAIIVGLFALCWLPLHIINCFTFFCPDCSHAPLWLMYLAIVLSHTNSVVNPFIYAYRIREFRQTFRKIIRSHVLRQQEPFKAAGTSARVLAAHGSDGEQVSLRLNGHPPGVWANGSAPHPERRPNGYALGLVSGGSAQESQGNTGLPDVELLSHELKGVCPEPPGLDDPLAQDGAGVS
Experiment: Displacement of [3H]CGS21680 from human adenosine A2A receptor in HEK293 cells at 10 uM
The following molecules are shown together with reported Activity values.
Number in %, nothing else.

The reported value for c1ccc2c3nc(C4CCCC4)nc-3c(Nc3ccc4c(c3)CCC4)[nH]c2c1 in terms of Activity is 8

The reported value for Clc1ccc(Nc2nc3ccccc3c3[nH]c(C4CCC4)nc23)cc1Cl in terms of Activity is 0.4

The reported value for c1ccc(CNc2[nH]c3ccccc3c3nc(C4CCCC4)nc2-3)cc1 in terms of Activity is 77

The reported value for Clc1ccc(Nc2nc3ccccc3c3[nH]c(C4CCCCCC4)nc23)cc1Cl in terms of Activity is -2

The reported value for Clc1ccc(Nc2[nH]c3ccccc3c3nc(-c4ccco4)nc2-3)cc1Cl in terms of Activity is 70

The reported value for c1ccc2c3nc(C4CCCC4)nc-3c(Nc3ccc4cc[nH]c4c3)[nH]c2c1 in terms of Activity is 74

The reported value for OCc1cccc(Nc2[nH]c3ccccc3c3nc(C4CCCC4)nc2-3)c1 in terms of Activity is 49

The reported value for Clc1ccc(Nc2nc3ccccc3c3nc(C4CCCCC4)[nH]c23)cc1Cl in terms of Activity is -1

The reported value for Clc1ccc(Nc2[nH]c3ccccc3c3ncnc2-3)cc1Cl in terms of Activity is -0.8

The reported value for c1ccc(CCNc2[nH]c3ccccc3c3nc(C4CCCC4)nc2-3)cc1 in terms of Activity is 91

The reported value for Clc1ccc(Nc2nc3ccccc3c3[nH]c(C4CCCC4)nc23)cc1Cl in terms of Activity is 0

###

Biological target: Adenosine receptor A2b (Homo sapiens) (UniProt P29275)
Sequence (whole entry): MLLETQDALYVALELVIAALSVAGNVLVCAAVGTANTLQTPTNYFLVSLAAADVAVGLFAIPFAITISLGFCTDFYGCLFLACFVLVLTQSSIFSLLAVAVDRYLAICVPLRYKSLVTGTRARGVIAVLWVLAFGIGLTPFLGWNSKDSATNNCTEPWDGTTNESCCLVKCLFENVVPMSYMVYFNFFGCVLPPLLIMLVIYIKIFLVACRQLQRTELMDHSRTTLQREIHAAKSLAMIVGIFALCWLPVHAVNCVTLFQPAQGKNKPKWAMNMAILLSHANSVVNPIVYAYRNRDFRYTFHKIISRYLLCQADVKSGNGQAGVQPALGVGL
Assay: Antagonist activity at human adenosine A2B receptor assessed as inhibition of NECA-induced cAMP accumulation in CHO membrane at 10 uM
Parameters: scale not given: the % may be the effect or the level left
property_label: Activity (%)
Number in %, nothing else.

Example cases with answers are listed next.
c1ccc2c3nc(C4CCCC4)nc-3c(Nc3ccc4c(c3)CCC4)[nH]c2c1 ... -10.7
COc1ccc(Nc2nc3ccccc3c3nc(C4CCCC4)[nH]c23)cc1 ... 7.3
Clc1ccc(Nc2nc3ccccc3c3[nH]c(C4CCCC4)nc23)cc1 ... -10.2
COc1ccc(CNc2[nH]c3ccccc3c3nc(C4CCCC4)nc2-3)cc1 ... 0.3
CCCCCc1nc2c(Nc3ccc(Cl)c(Cl)c3)[nH]c3ccccc3c-2n1 ... -9.3
Cc1ccc(Nc2nc3ccccc3c3[nH]c(C4CCCC4)nc23)cc1 ... -4.1

In the following, a different molecule is considered.
For Clc1ccc(Nc2nc3ccccc3c3[nH]c(C4CCCC4)nc23)cc1Cl on Adenosine receptor A2b (Homo sapiens) (UniProt P29275), measured Activity was -6.7

###

Target: UniProtKB P0DMS8
Sequence (P0DMS8 whole entry): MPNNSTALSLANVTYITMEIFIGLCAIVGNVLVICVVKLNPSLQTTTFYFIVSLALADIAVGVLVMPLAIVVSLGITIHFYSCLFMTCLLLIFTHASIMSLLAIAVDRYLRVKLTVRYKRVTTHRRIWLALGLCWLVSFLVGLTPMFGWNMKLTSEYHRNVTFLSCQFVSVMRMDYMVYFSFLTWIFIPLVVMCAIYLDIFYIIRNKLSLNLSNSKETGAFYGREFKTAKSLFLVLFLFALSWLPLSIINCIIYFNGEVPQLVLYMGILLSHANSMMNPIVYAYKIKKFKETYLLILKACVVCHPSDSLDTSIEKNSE
Assay: Displacement of [125I]I-AB-MECA from human adenosine A3 receptor in CHO membrane at 10 uM
Format: cell membranes
The following compounds are shown together with reported Activity values.
Report the figure along with its unit, number first.

Clc1ccc(Nc2nc3ccccc3c3[nH]c(C4CCC4)nc23)cc1Cl ... 52%
c1ccc(CNc2[nH]c3ccccc3c3nc(C4CCCC4)nc2-3)cc1 ... 86%
Clc1ccc(Nc2[nH]c3ccccc3c3ncnc2-3)cc1Cl ... 39%

In the following, a different compound is considered.
The reported value for Clc1ccc(Nc2[nH]c3ccccc3c3nc(-c4ccco4)nc2-3)cc1Cl in terms of Activity is 78%

###

The following compounds are shown together with reported Activity values.
Molecular target: Adenosine receptor A1 (Homo sapiens)
Assay: Displacement of [3H]R-PIA from human adenosine A1 receptor in CHO membrane at 10 uM
Format: cell membranes
Number in %, nothing else.

Example cases with answers are listed next.
Clc1ccc(Nc2[nH]c3ccccc3c3ncnc2-3)cc1Cl ... 1.8
OCc1cccc(Nc2[nH]c3ccccc3c3nc(C4CCCC4)nc2-3)c1 ... 51
c1ccc(CNc2[nH]c3ccccc3c3nc(C4CCCC4)nc2-3)cc1 ... 28

The reported value for Clc1ccc(Nc2nc3ccccc3c3[nH]c(C4CCC4)nc23)cc1Cl in terms of Activity is -5

The reported value for c1ccc(CCNc2[nH]c3ccccc3c3nc(C4CCCC4)nc2-3)cc1 in terms of Activity is 52

The reported value for c1ccc2c3nc(C4CCCC4)nc-3c(Nc3ccc4c(c3)CCC4)[nH]c2c1 in terms of Activity is 21
